- System: SH-SY5Y
- TEST: Antiproliferative activity against human SH-SY5Y cells assessed as inhibition of cell growth incubated for 48 hrs by MTT assay
- Assay type: functional, cell-based
REPORTED PROPERTY: IC50 (µM)

CC(C)c1ccc(-c2nc(N3CCOCC3)c3ccccc3n2)cc1    15.2
c1ccc2[nH]c(-c3nc(N4CCOCC4)c4ccccc4n3)cc2c1    14.5
CN(C)c1ccc(-c2nc(N3CCOCC3)c3ccccc3n2)cc1    9.54
Oc1ccc(-c2nc(N3CCOCC3)c3ccccc3n2)cc1    20.7
COc1cc2c(c(OC)c1OC)-c1ccc(OC)c(=O)cc1[C@@H](NC(C)=O)CC2 [COLCHICINE]    7.89
CSc1ccc(-c2nc(N3CCOCC3)c3ccccc3n2)cc1    24.3

[a] COc1cc(-c2nc(N3CCOCC3)c3ccccc3n2)cc(OC)c1OC
[b] FC(F)(F)c1ccc(-c2nc(N3CCOCC3)c3ccccc3n2)cc1
In: Between item a and item b , which reported IC50 is smaller? Identify your selection by its label.
Out: a
(a: 3.36 µM, b: 15.8 µM)

---

- Tested on: HT-29
- TEST: Antiproliferative activity against human HT-29 cells assessed as inhibition of cell growth incubated for 72 hrs by SRB assay
- Type: functional, cell-based
- SETUP CONDITIONS: HT-29, 72 h
REPORTED PROPERTY: IC50 (µM)
Record the value in µM, omitting the unit from your answer.

In: Fill blank: measured IC50 of the compound `O=C1Nc2ccc(F)cc2/C1=N/Nc1nc(-c2ccccc2)nc2ccccc12` is ____.
Out: 14.3

---

- Test system: HeLa
- TEST: Antiproliferative activity against human HeLa cells assessed as inhibition of cell growth incubated for 72 hrs by tryphan blue staining
- Type: functional, cell-based
REPORTED PROPERTY: IC50 (µM)
Record the value in µM, omitting the unit from your answer.

In: Fill blank: measured IC50 of the compound `O=[N+]([O-])c1ccc(-c2nnc3c4cc(Cl)ccc4nc(N4CCOCC4)n23)s1` is ____.
Out: 6.43

---

- System: B16
- TEST: Antiproliferative activity against mouse B16 cells assessed as inhibition of cell growth incubated for 72 hrs by tryphan blue staining
- Format: functional, cell-based
- SETUP CONDITIONS: B16, 72 h
REPORTED PROPERTY: pIC50
Keep it numeric: pIC50 is minus log10 of the concentration in mol/L.

In: Fill blank: measured pIC50 of the compound `O=[N+]([O-])c1ccc(-c2nnc3c4cc(Cl)ccc4nc(N4CCOCC4)n23)s1` is ____.
Out: 6.62

---

- System: SH-SY5Y
- TEST: Antiproliferative activity against human SH-SY5Y cells assessed as inhibition of cell growth incubated for 48 hrs by MTT assay
- Format: functional, cell-based
REPORTED PROPERTY: IC50

COc1ccc(-c2nc(N3CCOCC3)c3ccccc3n2)cc1    > 25 µM
N#Cc1ccc(-c2nc(N3CCOCC3)c3ccccc3n2)cc1    > 25 µM
Fc1cccc(Cl)c1-c1nc(N2CCOCC2)c2ccccc2n1    22 µM
Cc1ccc(-c2nc(N3CCOCC3)c3ccccc3n2)cc1    18 µM
Fc1ccccc1-c1nc(N2CCOCC2)c2ccccc2n1    > 25 µM

Please look at the following molecule next.
In: Fill blank: measured IC50 of the molecule `c1ccc(-c2nc(N3CCOCC3)c3ccccc3n2)cc1` is ____.
Out: > 25 µM
